- target or system: human histamine H3 receptor (Homo sapiens, UniProt Q9Y5N1)
- Sequence (Q9Y5N1 whole entry): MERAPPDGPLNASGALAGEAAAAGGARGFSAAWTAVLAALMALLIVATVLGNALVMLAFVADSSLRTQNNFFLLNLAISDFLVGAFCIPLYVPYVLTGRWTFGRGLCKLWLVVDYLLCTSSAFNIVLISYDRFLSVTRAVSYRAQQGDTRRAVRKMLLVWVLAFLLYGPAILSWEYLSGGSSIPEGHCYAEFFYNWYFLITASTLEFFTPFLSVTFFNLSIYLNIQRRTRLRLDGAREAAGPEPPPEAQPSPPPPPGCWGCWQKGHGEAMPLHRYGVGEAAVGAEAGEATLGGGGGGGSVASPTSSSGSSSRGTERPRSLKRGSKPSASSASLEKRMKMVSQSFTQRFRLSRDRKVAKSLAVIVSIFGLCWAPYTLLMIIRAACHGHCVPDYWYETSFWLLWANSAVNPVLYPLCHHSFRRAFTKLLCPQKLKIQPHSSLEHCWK
pKi: −log10 of the molar value.
quantity measured: pKi

Examples with their reported pKi follow.
compound	pKi
Cc1cccn2cc(-c3ccc(OCCCN4CCCCC4)cc3)nc12	9.00
Cc1ccn2cc(-c3ccc(OCCCN4CCCC4)cc3)nc2c1	8.70
Cc1cc(-c2cn3cccc(C)c3n2)ccc1OCCCN1CCCCC1	7.49
Cc1ccn2cc(-c3ccc(C=CCCN4CCCCC4)cc3)nc2c1 (mixture of isomers)	7.96
CCCN(CCC)CC(O)COc1ccc(-c2cn3cccc(C)c3n2)cc1 (stereo not drawn)	6.30

1: Cc1cccn2cc(-c3ccc(OCCCNC(C)c4ccccc4)cc3)nc12 (stereo not drawn)
2: Cc1cccn2cc(-c3ccc(NS(=O)(=O)CCCN4CCCCC4)cc3)nc12
3: Cc1cccn2cc(-c3ccc(OCCCN4CCOCC4)cc3)nc12
4: c1cc(-c2cn3c(n2)CCCC3)ccc1OCCCN1CCCCC1
Incoming: Provide the items ranked by increasing pKi. Write the labels, ordered according to the request.
Outgoing: 1, 2, 3, 4
(1: 6.00, 2: 6.20, 3: 7.60, 4: 9.12)

---

Measured Ki on human histamine H3 receptor (Homo sapiens) follows.
quantity measured: Ki (nM)

1: Cc1cccn2cc(-c3ccc(NC(=O)CN4CCCC4)cc3)nc12
2: Cc1ccn2cc(-c3ccc(/C=C/CCN4CCCC4)cc3)nc2c1
3: Cc1cccn2cc(-c3ccc(OCC(O)CNC(C)(C)C)cc3)nc12 (stereo not drawn)
4: Cc1ccn2cc(-c3ccc(CCCCN4CCCCC4)cc3)nc2c1
Incoming: # descending Ki order for the listed compounds Write the labels, ordered according to the request.
Outgoing: 3, 1, 4, 2
(3: 1000 nM, 1: 70 nM, 4: 29 nM, 2: 17 nM)

1: CCN(CC)CCOC(=O)c1ccc(-c2cn3cccc(C)c3n2)cc1
2: Cc1cccn2cc(-c3ccc(NC(=O)CCN4CCCCC4)cc3)nc12
Incoming: Between the entries labelled 1 and 2 , which has a larger Ki value on record? // caller expects the label of the chosen entry
Outgoing: 2

I: Cc1ccn2cc(-c3ccc(OCCCN4CCCCCC4)cc3F)nc2c1
II: Cc1ccn2cc(-c3ccc(OCCCNCc4ccc(F)cc4)cc3)nc2c1
III: Cc1cc(OCCCN2CCCCC2)ccc1-c1cn2c(n1)CC(C)CC2 (stereo not drawn)
Incoming: Provide the items ranked by increasing Ki. Write the labels, ordered according to the request.
Outgoing: III, I, II

---

Measured Ki on UniProt:Q9Y5N1 follows.
quantity measured: Ki (nM)

molecule	units label	Ki
Cc1cccn2cc(-c3ccc(NCCN4CCCCC4)cc3)nc12	nM	8
CCCCN(CCCC)CC(O)COc1ccc(-c2cn3cccc(C)c3n2)cc1 (centres unmarked)	nM	1000

1: Cc1cccn2cc(-c3ccc(OCC(O)CN4CCN(Cc5ccccc5)CC4)cc3)nc12 (centres unmarked)
2: Cc1cccn2cc(-c3ccc(NCCN4CCCC4)cc3)nc12
3: Cc1ccn2cc(-c3ccc(OCCCN4CCC(N5CCCCC5)CC4)cc3C)nc2c1
Incoming: Arrange these molecules by their Ki, starting with the largest number. Write the labels, ordered according to the request.
Outgoing: 1, 3, 2

---

Measured Ki on human histamine H3 receptor (Homo sapiens, UniProt Q9Y5N1) follows.
quantity measured: Ki (nM)

molecule	units label	recorded number
Cc1ccn2cc(-c3ccc(CCCCN4CCCC4)cc3)nc2c1 [Example 37]	nM	10

1: Cc1cccn2cc(-c3ccc(OCCCNCc4ccccc4)cc3)nc12 [Example 43]
2: c1ccn2cc(-c3ccc(OCCCN4CCCCC4)cc3)nc2c1 [Example 52]
Incoming: Pick one: 1 or 2 . Which one has the lower reported Ki? // caller expects the label of the chosen entry
Outgoing: 2
(2: 5 nM, 1: 1000 nM)
